Data provenance is PubChem BioAssay (EPA / NIEHS).

read-out: Cyclin D1 (CCND1), CCND1 (gene 595); assay: LTEA_HepaRG_CCND1: Life Technologies and Expression Analysis (LTEA) Assay for Cyclin D1 (CCND1) using HepaRG (AID 2283451); conditions: mRNA level, 48 h; actives raise or lower the signal
Active and inactive are the calls of the source. Rule for the calls: active = hit-call score of the fitted dose curve at least 0.9, where 1 is the maximum; inactive = score below 0.9.
Please reply with one of these outcomes: active, inactive

Record request — test call for O=c1[nH]cnc2c1ncn2[C@H]1CC[C@@H](CO)O1
inactive

Record request — test call for c1ccc2c(c1)-c1cccc3c1c-2cc1ccccc13
active

Record request — test call for CCCCC(CC)C(=O)OCCOCCOCCOC(=O)C(CC)CCCC (configuration not stated)
inactive

Record request — test call for OCCNCCO
inactive

Record request — test call for CCCCCCCCCCCCCCO
inactive

Record request — test call for CCCCCCCC/C=C\CCCCCCCC(=O)OC[C@@H](O)[C@H]1OC[C@H](O)[C@H]1O
inactive

Record request — test call for CCn1nc(C)c2c1C(=O)NCC(c1ccc(O)cc1)=N2
inactive

Record request — test call for O=C(O)c1ccc2c(c1)nc(C(=O)NC1CCN(C3CC3)CC1)n2Cc1cc(-c2ccc(Cl)s2)on1
inactive

Record request — test call for CCCCN1C(=O)[C@@H]([C@H](O)C2CCCCC2)NC(=O)C12CCN(Cc1ccc(Oc3ccc(C(=O)O)cc3)cc1)CC2
active

Record request — test call for CCc1cccc(CC)c1N
inactive

Record request — test call for NNC(=O)c1ccncc1
inactive

Record request — test call for Nc1ccn([C@@H]2O[C@H](CO)[C@@H](O)[C@@H]2O)c(=O)n1
inactive

====

assay: Tanguay_ZF_120hpf_PFIN_legacy: (Legacy) Oregon State University Tanguay Lab 120 Hour Post-fertilization zebrafish Assay for Pectoral Fin Malformation (AID 2283648);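 note: each larva judged yes or no for fin defect by brightfield with dead larvae skipped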
Records with an inconclusive call do not appear. Activity calls are given as the source filed them. Rule for the calls: active = hit-call score of the fitted dose curve at least 0.9, where 1 is the maximum; inconclusive = response in the unintended direction; inactive = score below 0.9.
measured_property: AC50

Solved cases below.
compound=OC(Cn1cncn1)(Cn1cncn1)c1ccc(F)cc1F measured_property=AC50 measured_result=inactive
compound=NC(=O)N1c2ccccc2C=Cc2ccccc21 measured_property=AC50 measured_result=inactive
compound=C[C@@H](Oc1ccc(CNC(=O)c2cccnc2Oc2ccc3c(c2)OCO3)c(F)c1)C(=O)O measured_property=AC50 measured_result=inactive
compound=COc1cc(C(C)C)c2c(c1)S(=O)(=O)N(COc1cc(=O)n3cccc(OCCN4CCCCC4)c3n1)C2=O measured_property=AC50 measured_result=inactive
compound=CCCc1ccccc1 measured_property=AC50 measured_result=inactive

AC50 recorded for this compound, O=C(O)[C@H](O)[C@@H](O)C(=O)O , is inactive

AC50 recorded for this compound, O=S(=O)(O)c1ccc(N=Nc2c(O)ccc3cc(S(=O)(=O)O)ccc23)cc1 , is inactive

AC50 recorded for this compound, COc1cc2c(c(OC)c1OC)-c1ccc(OC)c(=O)cc1[C@@H](NC(C)=O)CC2 , is 21 µM (active)

AC50 recorded for this compound, CC(C)c1nnc2ccc(-c3ocnc3-c3cc(F)ccc3F)cn12 , is inactive

AC50 recorded for this compound, c1ccc2cc3ccccc3cc2c1 , is inactive

====

read-out: Epidermal growth factor receptor (EGFR), EGFR (gene 1956); test: BSK_hDFCGF_EGFR: BioMAP Diversity Plus: hDFCGF Assay for Epidermal growth factor receptor (EGFR) Biomarker Activity (AID 2283057); conditions: primary human foreskin fibroblasts; actives raise or lower the signal
The source made the active and inactive calls. How the source made its calls: active means hit-call score of the fitted dose curve at least 0.9, where 1 is the maximum; inactive means score below 0.9.
Please reply with one of these outcomes: true (1) for active, false (0) for inactive

Record request — test call for Cc1nccn1-c1ccc(Sc2cccc(C3(C(N)=O)CCOCC3)c2)cc1
false (0)

Record request — test call for Cc1ncc([C@@H](CCCCCCc2ccc3c(n2)NCCC3)CC(=O)O)cn1
false (0)

Record request — test call for NCC(F)(F)C(F)(F)C(F)(F)C(F)(F)F
false (0)

Record request — test call for Nc1ccn([C@@H]2O[C@H](CO)[C@@H](O)[C@@H]2O)c(=O)n1
false (0)

Record request — test call for O=C(O)[C@H](O)[C@@H](O)C(=O)O
false (0)

Record request — test call for CCCCCOC(C)=O
false (0)

Record request — test call for CCc1ccc(O)c(C(C)(C)C)c1
false (0)

Record request — test call for O=c1[nH]cnc2c1ncn2[C@H]1CC[C@@H](CO)O1
false (0)

Record request — test call for OCCC(F)(F)C(F)(F)C(F)(F)C(F)(F)F
false (0)

Record request — test call for CCCCCCCC/C=C\CCCCCCCC(=O)OC[C@@H](O)[C@H]1OC[C@H](O)[C@H]1O
false (0)

Record request — test call for Cc1cccc(O)c1C
false (0)

Record request — test call for CCOc1ccc2[nH]cc(C(=O)NCc3ccccc3)c(=O)c2n1
true (1)

====

read-out: Cytochrome P450 4A22 (Homo sapiens); experiment: LTEA_HepaRG_CYP4A22: Life Technologies and Expression Analysis (LTEA) Assay for Cytochrome P450 4A22 (CYP4A22) using HepaRG (AID 2283495); conditions: mRNA level, 48 h; actives raise or lower the signal
Active and inactive are the calls of the source. How the source made its calls: active means hit-call score of the fitted dose curve at least 0.9, where 1 is the maximum; inactive means score below 0.9.
measured_property: AC50

Solved cases below.
compound=CCc1cccc(CC)c1N measured_result=inactive
compound=Cc1ncc([C@@H](CCCCCCc2ccc3c(n2)NCCC3)CC(=O)O)cn1 measured_result=inactive
compound=OCc1ccccc1 measured_result=inactive
compound=CCCc1ccccc1 measured_result=inactive
compound=O=C1CN(N=Cc2ccc([N+](=O)[O-])o2)C(=O)N1 measured_result="44.3 µM (active)"
compound=CCCC(CCC)C(=O)O measured_result=inactive

AC50 recorded for this compound, CCCCC(CC)C(=O)OCCOCCOCCOC(=O)C(CC)CCCC (configuration not stated) , is inactive

AC50 recorded for this compound, CCOc1ccc2[nH]cc(C(=O)NCc3ccccc3)c(=O)c2n1 , is 35.4 µM (active)

AC50 recorded for this compound, O=C(NO)C1(NS(=O)(=O)c2ccc(Oc3ccc(F)cc3)cc2)CCOCC1 , is 68.9 µM (active)

AC50 recorded for this compound, CC(=O)c1ccccc1 , is inactive

AC50 recorded for this compound, CCCCCCCCCCCCCCCCOS(=O)(=O)O , is inactive

AC50 recorded for this compound, COS(C)(=O)=O , is inactive

AC50 recorded for this compound, CCCCCCCC/C=C\CCCCCCCC(=O)OC[C@@H](O)[C@H]1OC[C@H](O)[C@H]1O , is inactive

AC50 recorded for this compound, NC(=O)NN=Cc1ccc([N+](=O)[O-])o1 , is inactive

AC50 recorded for this compound, OCCNCCO , is inactive

AC50 recorded for this compound, NC(=O)N(O)[C@@H]1COc2cc(OCc3ccccc3)ccc21 , is inactive

AC50 recorded for this compound, c1ccc(C(O[C@@H]2CCCN(CCc3ccc4c(c3)OCO4)C2)c2ccccc2)cc1 , is 6.12 µM (active)

====

molecular target: human Thromboxane A2 Receptor (TXA2), TBXA2R (gene 6915) (UniProt P21731); test: NVS_GPCR_hTXA2: NovaScreen (NVS) G Protein-Coupled Receptor Assay for human Thromboxane A2 Receptor (TXA2) (AID 2283282);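 note: actives reduce bound radioligand signal relative to DMSO baseline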
Sequence (P21731 whole entry, looked up): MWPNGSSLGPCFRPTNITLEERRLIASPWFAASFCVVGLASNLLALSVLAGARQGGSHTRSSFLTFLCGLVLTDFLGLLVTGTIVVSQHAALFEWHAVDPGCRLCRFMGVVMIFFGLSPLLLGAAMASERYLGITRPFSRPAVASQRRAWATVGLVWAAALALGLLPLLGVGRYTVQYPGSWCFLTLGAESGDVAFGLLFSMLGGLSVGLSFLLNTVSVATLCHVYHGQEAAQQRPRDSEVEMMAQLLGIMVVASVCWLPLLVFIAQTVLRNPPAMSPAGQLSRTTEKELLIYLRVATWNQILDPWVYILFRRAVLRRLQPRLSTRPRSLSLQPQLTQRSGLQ
Records with an inconclusive call do not appear. Activity calls are given as the source filed them. Rule for the calls: active = hit-call score of the fitted dose curve at least 0.9, where 1 is the maximum; inconclusive = response in the unintended direction; inactive = score below 0.9.
Please reply with one of these outcomes: active, inactive

Record request — test call for CCCCCCCC/C=C\CCCCCCCC(=O)OC[C@@H](O)[C@H]1OC[C@H](O)[C@H]1O
active

Record request — test call for Cc1cccc(O)c1C
inactive

Record request — test call for CC(C)C(=O)Nc1ccc([N+](=O)[O-])c(C(F)(F)F)c1
active

Record request — test call for CCCCOC(=O)c1ccccc1
inactive

Record request — test call for CC[C@H](C)C(=O)O[C@H]1C[C@H](O)C=C2C=C[C@H](C)[C@H](CC[C@@H](O)C[C@@H](O)CC(=O)O)[C@H]21
inactive

Record request — test call for C=CCc1cc(S(=O)(=O)c2ccc(O)c(CC=C)c2)ccc1O
active

Record request — test call for CCn1nc(C)c2c1C(=O)NCC(c1ccc(O)cc1)=N2
active

Record request — test call for OCc1c[nH]c2ccccc12
inactive

====

Test: CCTE_Mundy_HCI_Cortical_Synap_Neur_Matur_NeuriteSpotCountPerNeuriteLength: CCTE's Synaptogenesis and Neurite Maturation Assay in rat cortical cells for Neurite Spot Count per Neurite Length, Mundy Lab (AID 2284210)
Experimental: CCTE_Mundy_HCI_Cortical_Synap&Neurite_Matur is a multiplexed, cell-based-readout assay that uses rat primary cortical cells with measurements taken at 288.33 hours after chemical dosing in a microplate: 96-well plate.CCTE_Mundy_HCI_Cortical_Synap_Neur_Matur_NeuriteSpotCountPerNeuriteLength is one of eight components of the CCTE_Mundy_HCI_Cortical_Synap&Neurite_Matur assay. […]
Active and inactive are the calls of the source. The calls were made as follows: active = hit-call score of the fitted dose curve at least 0.9, where 1 is the maximum; inactive = score below 0.9.
Please reply with one of these outcomes: active, inactive

Record request — test call for OC(Cn1cncn1)(Cn1cncn1)c1ccc(F)cc1F
inactive

Record request — test call for CCCC(CCC)C(=O)O
inactive

Record request — test call for c1ccc2cc3ccccc3cc2c1
inactive

Record request — test call for C[C@]12C=CC(=O)C=C1CC[C@H]1[C@@H]3C[C@@H](O)[C@](O)(C(=O)CO)[C@@]3(C)C[C@H](O)[C@@]12F
active

Record request — test call for NNC(=O)c1ccncc1
inactive
